Reference source for all entries: patent US20190382504A1

Target: T1, ESO157 homolog 1 peptide (…)/HLA-A*02:01 on T2 cells (human)
T1 construct: also called ESO157 H1
Experiment: FACS, phage on T2 cells, 50 ug/ml peptide;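 note: binding of phage clones to peptide/MHC complexes detected by flow cytometry after staining with an anti-M13 antibody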
MEASUREMENT LABEL: MFI

Any idea what its MFI is? The binder is phage clone 35-15, affinity maturation variant of clone #35 (scFv, V domains shown) VH: QVQLVQSGAEVKKPGSSVKVSCKASGDTFSSYYISWVRQAPGQGLEWMGRIIPILGIANYAQKYQGRVTLSADKSTSTSYMELNSLSSEDTAVYYCALDWSYSIDYWGQGTLVTVSS VL: QSVVTQPPSVSAAPGQKVTISCSGSSSNIGNNYVSWYQQLPGTAPKLLIYDNNKRPSGIPDRFSASKSGTSATLGITGLQTRDEADYYCGTWDSSLSAWVFGGGTKLTVLG
36.2

Any idea what its MFI is? The binder is phage clone 35-19, affinity maturation variant of clone #35 (scFv, V domains shown, also called variant 35-19) VH: QEQLVQSGAEVKKPGSSVKVSCKASGDTFSSYYISWVRQAPGQGLEWMGRIIPILGIANYAQKYQGRVTLSADKSTSTSYMELNSLRSEDTAVYYCARDWSYSIDYWGQGTLVTVSS VL: QSVVTQPPSVSAAPGQKVTISCSGSISNIGNNYVSWYQQLPGTAPKLLIYDNNMRPSGIPDRFSGSKSGTSATLGITGLQTGDEADYYCGTWDSSLSAWVFGGGTKLTVLG
20.7

Any idea what its MFI is? The binder is phage clone 35-12, affinity maturation variant of clone #35 (scFv, V domains shown) VH: QVPLVQSGAEVKKPGSSVRVSCKASGDTFSNYSISWVRQAPGQGLEWMGRIIPILGIANYAQKYQGRVTLSADKSTSTSYMELNSLRSEDTAVYYCARDWSYSIDYWGQGTLVTVSS VL: QSVVTQPPSVSAAPGQKVTISCSGSSSNIGNNYVSWYQQLPGTAPKLLIYDNNKRPSGIPDRFSGSKSGTSTTLGITGLQTGDEADYYCGTWDSSLSAWVFGGGTKLTVLG
19.3
